# procedureDetails: soluble on expression in E. coli; label from the status in PepcDB or PDB records
measure: soluble on expression in E. coli

MGSDKIHHHHHHMSSVGDFEEIILHDLKPYYHVPGAIHSEGITFVKETGTLLWVDIFKGEVHKVEDIEQPESSHSFFSISRANYGKNASIEYPPNPDELKESVGCIFPILDGASQNEIKQVLFGSKFGIGKLDFSKSEWEYVILYSECPELSTDRAYKLRSNDGNVSPDGKYIYVGLMSDFPFDLEPIGCLLRVDLLAHKIELVWNCLLIPNAIHWDESDQKTMYVTDSLNFTIWKCPGGDLLKRDELIDVKNSNNQSFESPEPDGSAIWFSKDGKHSGFLFITVWSTSKVQMFDLTNGKLLKEFILPEQTPRVSCCCFVGKDLFVTTANAEINDAVRTNTDKNGGCIYKIPNVLDGNVPLESTKRQPLH
not soluble
MSLKPESPNQDDFIIITMENLALYAIFDGHGPYGHDVSNYVQKELPYMIIKNENFLKNPKEVFTKAFLNIHENIERTTNAYLDSFTNKNSDSTMSGTTATIIVHLFKEKKLYVAYVGDSRAVLGKRKNGSKQLSAVELTKDHKPNCAAEKKRILSSGGQVMKLEGDIPYRVFIKNKFYPGLAMSRAIGDTIGHQIGIIAEPDFIEVNINEDEDILVLICSDGVWEFISSEEAVNLIYEFGYNNVQDAVENLARESWDRWLNEEENIVDDITIQAIYLSEKSKYLKEGHHHHHH
not soluble
MDEDTEDWETQLQANRDEKDRFFSEHRQSPIPPEERDDFDGLSYFDPDPDYRVEATVTVHETPESVDLETSDDRTVRYLHVATLSFDLDGESRDLHAFRQAADESRTLFVPFRDKTTGQQSYDGGRYMELEPDRDLSDGDEITLDFNLAYSPFCAYSDTFSCPLPPESNWLETAVTAGERTDLEHHHHHH
soluble
MGSDKIHHHHHHMLEELSENVWIAEGTCVSFHGFHGFHGFHGFHGFHGFQYPTRSVVVRLKSGAMWVWSPVKFDQDLADEIESLGTITHLVSPNKIHHLFLADWSSHVPTAKIWGPRSTVNKRRDLVFQPALDHLPPRDWAEDFEQFHVKGSLAMDEILFLHKQSNTLILADFSEHFSDQFLQRHWQPWQRRIGQFWGITEGRGFAPLDWRLSFLNRSHLRTLKQQLLDRQVDHVVMAHGEIARTDGHRFLQRSLAWI
not soluble
MSLDFNDEIYRELNRICASLSQQCSTYQPEFRTCLDAAFQALRGGKLIRPRMLLGLYNTLVDDDIEVKLNTVLQVAVALELLHFSLLVHDDVIDGDLYRRGKLNFIGQILMHRTPESFAQIQRDPEHLDWAQSNGLLMGNLFLAATHQIFARLDLPHHQRVRLLDLLNHTINDTIVGEFLDVGLSSKAISPNMDIALEMSRLKTATYTFELPMRAAAILAELPQEIETKIGEIGTNLGIAYQLQDDYLSTFGDAAEHGKDAFSDLREGKETTIIAFARDTAKWTDIQDNFGSADLSTSQAERIQHLLIQCGAKNHSLNAISDHLNICRSMIKTLSPQVDPKAQNLLLKQVEQLASRKSEGHHHHHH
soluble

Input PDGDFVDLAWSEDPHQARHKPRLVVFHGLEGSLHSPYAHGLIHAAMQRGWLGVVMHFRGCSGEPNRNHRIYHSGETEDGTWFLHWLKREFGPAPTAAVGYSLGGNMLGCLLAEEGDRCPLDAAVIVSAPFMLEACSYHMDKGFSRVYQRYLLNLLKANASRKLKAYPGSLPVDLRQLKGMRRIREFDDMITAKIHGFADALDYYRQCSAMPRLSDITKPTLIIHAKDDPFMDHHSIPPQEQLPANVEYQLTEQGGHVGFVSGTLRKPEMWLERRIPDWLNRWLE . Output soluble on expression in E. coli: not soluble

Input MSLFPGDIEELARRIITDFTPLGLMVSTAESCTGGLIAGALTEIAGSSAVVDRGFVTYTNDAKRDMLGVGTETLTTFGAVSRQTALQMAHGALYRSRANFAVAVTGIAGPGGGSAEKPVGLVHLATKARNGNVLHHEMRYGDIGRTEIRLATVRTALEMLIALNQAGSV . Output soluble on expression in E. coli: soluble

Input AIAGELTDALLGKGALKTRFGSLLGQGDWGGVRVSQVEVRWVIFCLLHWLHVNLPVTEYLALDVLFPLAIVQKHSIL . Output soluble on expression in E. coli: soluble

Input GSHMARYDSLLQALGNTPLVGLQRLSPRWDDGRDGPHVRLWAKLEDRNPTGSIKDRPAVRMIEQAEADGLLRPGATILEPTSGNTGISLAMAARLKGYRLICVMPENTSVERRQLLELYGAQIIFSAAEGGSNTAVATAKELAATNPSWVMLYQYGNPANTDSHYCGTGPELLADLPEITHFVAGLGTTGTLMGTGRFLREHVANVKIVAAEPRYGEGVYALRNMDEGFVPELYDPEILTARYSVGAVDAVRRTRELVHTEGIFAGISTGAVLHAALGVGAGALAAGERADIALVVADAGWKYLSTGAYAGSLDDAETALEGQLWA . Output soluble on expression in E. coli: soluble

Input MASTSKPAASTTAIKKYYFYVLLCADQTLYGGFTDNLQRRLATHNAGKGAKYTRVRSRRPLQLIYHETFTDKSSALKAEYAFKHQSRAAKLKYLSAHDVKILEHHHHHH . Output soluble on expression in E. coli: not soluble

Input MGSDKIHHHHHHMRHELDNPHAHATNNPCIRCLRHADRYARAVVSMLEVFASDKAEAKHNLFLKEGLCDIDKTLRSNDKRDTLRERPRNQTSSAMTLSPEKRARVMQGEILIDLNWLPDGVIGAKGSVFVEAEPPVVWRMLTDYDHLHETMPKVISSRLLETNNQTRIIAQSGKSGIFIFEKTVNFTLKVEEVFPEHLWFSQIGGDFQVYEGEWQLEAVEGKNGHATLLSYQAEIKPDFFAPQFVVSFVQSQDLPTILRAIRSYCEARAKG . Output soluble on expression in E. coli: not soluble

Input MRDEKRKAIPAIGFYPQEEISTGTTLIAMEYNGGVVVGTDSRTSAGSFITSRATNKITPITDNMVVCRSGSAADTQAIADIAKYHIDVYTMTENKPVTIYRSSQIFRQFLYNYREQLSASVLVAGWDEELGGQVYAIPIGGFVSRQRSTASGSGSTFVQGFLDSQWRPNLTLEECKAIVKQAVGLATFRDGSSGGVVRLAVINKAGSQFELFRPDKPGFPFVQTPTPHLSFPPHIEQVL . Output soluble on expression in E. coli: not soluble

Input MSNTQAERSIIGMIDMFHKYTRRDDKIDKPSLLTMMKENFPNFLSACDKKGTNYLADVFEKKDKNEDKKIDFSEFLSLLGDIATDYHKQSHGAAPCSGGSQ . Output soluble on expression in E. coli: not soluble
